Listed next: entries and their corresponding IC50.
- target: CDK5/p25 (Homo sapiens)
- Construct: purchased Invitrogen PR8543B
- Sequence (Q00535 whole entry): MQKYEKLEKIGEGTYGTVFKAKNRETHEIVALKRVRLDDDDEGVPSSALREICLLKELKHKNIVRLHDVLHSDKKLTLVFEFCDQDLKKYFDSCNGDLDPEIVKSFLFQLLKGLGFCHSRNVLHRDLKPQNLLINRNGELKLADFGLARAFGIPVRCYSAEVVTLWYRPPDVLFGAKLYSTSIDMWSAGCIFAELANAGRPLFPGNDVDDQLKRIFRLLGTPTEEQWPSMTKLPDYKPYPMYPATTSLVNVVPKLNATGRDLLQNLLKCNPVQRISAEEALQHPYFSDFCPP
- Sequence (Q15078 99-307 partner limits assumed): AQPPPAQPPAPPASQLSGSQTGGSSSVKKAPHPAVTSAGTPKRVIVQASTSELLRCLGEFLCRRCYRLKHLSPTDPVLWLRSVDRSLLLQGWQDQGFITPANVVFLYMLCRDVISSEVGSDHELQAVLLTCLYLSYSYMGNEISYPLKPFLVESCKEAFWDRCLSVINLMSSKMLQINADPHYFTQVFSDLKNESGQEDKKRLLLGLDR
- method_notes: Enzymatic assay for CDK5 (FRET based LANCE Ultra kinase assay)
- Assay type: biochemical
- stated_conditions: read-out: CDK5 enzymatic activity (IC50 range)
measurement_type: IC50

compound=CC(C)c1cnn2c(NCc3ccccc3-n3cc4c(n3)CCOC4)nc(N3CCC(N)CC3)nc12 target="CDK5/p25 (Homo sapiens)" reported_value="100 to 1000 nM"
compound="CC(C)c1cnn2c(NCc3ccccc3-c3ccc4ccccc4n3)nc(NCC3CCNCC3O)nc12 (stereo not drawn)" target="CDK5/p25 (Homo sapiens)" reported_value="100 to 1000 nM"
compound=CC(C)c1cnn2c(NCc3ccccc3-c3ccc4cc(C(C)(C)O)ccc4n3)nc(N3CCC(O)(CN)CC3)nc12 target="CDK5/p25 (Homo sapiens)" reported_value="> 1000 nM"
compound=CC(C)c1cnn2c(NCc3ccccc3-c3ccc4ccccc4n3)cc(N3CCC(N)CC3)nc12 target="CDK5/p25 (Homo sapiens)" reported_value="100 to 1000 nM"
compound="CC(=O)NC1CCc2nn(-c3ccccc3CNc3nc(N4CCC(N)CC4)nc4c(C(C)C)cnn34)cc2C1 (stereo not drawn)" target="CDK5/p25 (Homo sapiens)" reported_value="100 to 1000 nM"
compound=CC(C)c1cnn2c(NCc3cccc(NC(=O)c4cccc(NC(=O)CCCN(C)C)c4)c3)nc(N3CCC(N)CC3)nc12 target="CDK5/p25 (Homo sapiens)" reported_value="100 to 1000 nM"
compound=CC(C)c1cnn2c(NCc3ccsc3-n3cccn3)nc(N3CCC(N)CC3)nc12 target="CDK5/p25 (Homo sapiens)" reported_value="< 100 nM"
compound=CC(C)c1cnn2c(NCc3ccccc3-c3[nH]c4ccccc4c3Cl)nc(N3CCC(N)CC3)nc12 target="CDK5/p25 (Homo sapiens)" reported_value="100 to 1000 nM"
compound=CC(C)c1cnn2c(NCc3ccccc3-n3cc4c(n3)CCCC4)nc(N3CCC(N)CC3)nc12 target="CDK5/p25 (Homo sapiens)" reported_value="100 to 1000 nM"
compound=CC(C)c1cnn2c(NCc3ccccc3-c3ccc4[nH]c(=O)[nH]c4c3)nc(N3CCC(N)CC3)nc12 target="CDK5/p25 (Homo sapiens)" reported_value="< 100 nM"
compound=CC(C)c1cnn2c(N[C@@H](C)c3ccccc3-n3cccn3)nc(N3CCC(N)CC3)nc12 target="CDK5/p25 (Homo sapiens)" reported_value="> 1000 nM"
compound=Cc1cccc(-c2cc(CO)nn2C)c1CNc1nc(N2CCC(N)CC2)nc2c(C(C)C)cnn12 target="CDK5/p25 (Homo sapiens)" reported_value="> 1000 nM"
compound=CC(C)c1cnn2c(NCc3ccccc3-n3cccn3)nc(N3CCNCC3)nc12 target="CDK5/p25 (Homo sapiens)" reported_value="100 to 1000 nM"
compound=CC(C)c1cnn2c(NCc3c(Cl)cccc3-c3cc(C(C)(C)O)n(C)n3)nc(N3CCC(N)CC3)nc12 target="CDK5/p25 (Homo sapiens)" reported_value="> 1000 nM"
compound=CC(C)c1cnn2c(NCc3ccccc3-n3cccn3)nc(Nc3ccc(C4CCNCC4)cn3)nc12 target="CDK5/p25 (Homo sapiens)" reported_value="> 1000 nM"
compound="CC(C)c1cnn2c(NCc3ccccc3-c3cc4ccccc4[nH]3)nc(N3CCCC(N)C3)nc12 (racemic)" target="CDK5/p25 (Homo sapiens)" reported_value="> 1000 nM"
compound=CC(C)c1cnn2c(NCc3c(Cl)cccc3-c3ccc4ccccc4n3)nc(N3CCC(N)CC3)nc12 target="CDK5/p25 (Homo sapiens)" reported_value="> 1000 nM"
compound=CC(C)c1cnn2c(NCc3ccccc3Oc3ccc4ccccc4n3)nc(N3CCC(N)CC3)nc12 target="CDK5/p25 (Homo sapiens)" reported_value="100 to 1000 nM"
compound=CC(C)c1cnn2c(NCc3c(-n4cccn4)cccc3C(F)(F)F)nc(N3CCC(N)CC3)nc12 target="CDK5/p25 (Homo sapiens)" reported_value="> 1000 nM"
compound="CC(C)c1cnn2c(NCc3ccccc3-c3ccc4ccccc4n3)nc(NCCC(O)CN)nc12 (racemic)" target="CDK5/p25 (Homo sapiens)" reported_value="> 1000 nM"
compound=CC(C)c1cnn2c(NCc3ccccc3-c3cc4ccccc4[nH]3)nc(N3CCC(N)CC3)nc12 target="CDK5/p25 (Homo sapiens)" reported_value="< 100 nM"
compound=CC(C)c1cnn2c(NCc3ccccc3-n3cc(N4CCNCC4)cn3)nc(N3CCC(N)CC3)nc12 target="CDK5/p25 (Homo sapiens)" reported_value="< 100 nM"
compound=CC(C)c1cnn2c(NCc3ccccc3-c3ccc4ccccc4n3)cc(OCC3CCNCC3)nc12 target="CDK5/p25 (Homo sapiens)" reported_value="> 1000 nM"
compound=Cc1[nH]c(-c2ccccc2CNc2nc(N3CCC(N)CC3)nc3c(C(C)C)cnn23)nc1C(=O)NC1CCOCC1 target="CDK5/p25 (Homo sapiens)" reported_value="< 100 nM"
compound=CC(=O)N(C)c1ccccc1CNc1nc(N2CCC(N)CC2)nc2c(C(C)C)cnn12 target="CDK5/p25 (Homo sapiens)" reported_value="100 to 1000 nM"
compound=CC(C)c1cnn2c(NCc3ccccc3-n3cc4c(n3)CCC(=O)C4)nc(N3CCC(N)CC3)nc12 target="CDK5/p25 (Homo sapiens)" reported_value="100 to 1000 nM"
compound=CC(C)c1cnn2c(NCc3c(O)cccc3-c3cc4ccccc4[nH]3)nc(N3CCC(N)CC3)nc12 target="CDK5/p25 (Homo sapiens)" reported_value="> 1000 nM"
compound=CC(C)c1cnn2c(NCc3ccccc3-n3cccn3)nc(NC3CCNCC3)nc12 target="CDK5/p25 (Homo sapiens)" reported_value="100 to 1000 nM"
compound=CC(C)c1cnn2c(NCc3c(Cl)cccc3-n3ccc(C(C)(C)O)n3)nc(N3CCC(C)(N)CC3)nc12 target="CDK5/p25 (Homo sapiens)" reported_value="> 1000 nM"
compound=CC(C)c1cnn2c(NCc3ccccc3N(C)c3ccccc3)nc(N3CCC(N)CC3)nc12 target="CDK5/p25 (Homo sapiens)" reported_value="100 to 1000 nM"
